Target chain: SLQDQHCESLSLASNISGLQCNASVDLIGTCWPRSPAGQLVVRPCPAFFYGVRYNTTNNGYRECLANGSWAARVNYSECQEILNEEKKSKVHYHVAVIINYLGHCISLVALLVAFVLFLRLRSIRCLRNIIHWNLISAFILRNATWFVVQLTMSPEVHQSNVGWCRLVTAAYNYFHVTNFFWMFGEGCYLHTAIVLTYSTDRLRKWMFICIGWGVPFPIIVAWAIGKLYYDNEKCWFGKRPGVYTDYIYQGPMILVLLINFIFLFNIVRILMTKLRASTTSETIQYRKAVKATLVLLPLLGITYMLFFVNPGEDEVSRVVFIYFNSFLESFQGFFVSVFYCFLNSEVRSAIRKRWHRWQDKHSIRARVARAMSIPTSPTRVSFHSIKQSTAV
reported_endpoint: Kd

Some compounds with recorded Kd:
[[record]]
compound = "CCC(COC)Oc1nc(C)nc(OC(CC)COC)c1C (stereo not shown)"
meas_value = "> 100 nM"

[[record]]
compound = "CCC(COC)Nc1nc(C)nc(Oc2ccc(OC)cc2C)c1C (stereo not shown)"
meas_value = "> 100 nM"

[[record]]
compound = "CCC(COC)Nc1nc(C)nc(Oc2c(C)cc(C)cc2C)c1C (stereo not shown)"
meas_value = "~30 nM"

[[record]]
compound = "CCC(COC)Oc1nc(C)nc(Nc2ccc(OC)cc2C)c1C (stereo not shown)"
meas_value = "~30 nM"


// field: Kd; key: CCC(COC)Oc1nc(C)nc(Nc2ncc(C)cc2C)c1C (stereo not shown) ; value = 1000 nM

// field: Kd; key: CCC(COC)Oc1nc(C)nc(Nc2ccc(F)cc2C(F)(F)F)c1C (stereo not shown) ; value = > 100 nM

// field: Kd; key: CCC(COC)Oc1nc(C)nc(Nc2c(F)cc(F)cc2F)c1C (stereo not shown) ; value = > 100 nM
